Each item that follows carries a reported NF-kB reporter.
- Test system: RAW-Dual (murine macrophage reporter line)
- test.protocol: NF-kB reporter (SEAP) activity fold change vs agonist alone; higher = enhanced NF-kB activity
- recorded.conditions: modulator concentration 10 µM; agonist: MPLA […]
parameter: NF-kB reporter

compound=O=S(=O)(Cc1ccccc1)Nc1ccccn1 obs_value=0.893
compound=NC12CC3CC(CC(C3)C1)C2 obs_value=1.01
compound=N#Cc1ccc(C(=O)Nc2nc(-c3cccs3)c(C(=O)C(F)(F)F)s2)cc1 obs_value=1.09
compound=O=C(O)CCCNC(=O)c1cccc([N+](=O)[O-])c1 obs_value=0.983
compound=O=C1c2ccccc2C(=O)C1c1ccncc1 obs_value=0.944
compound=COC(=O)C1=C(C)NC(=Cc2c(F)cccc2Cl)C1=O obs_value=0.963
compound=COc1ccc(-n2nc(C(N)=O)c3c2C(=O)N(c2ccc(N4CCCCC4=O)cc2)CC3)cc1 obs_value=1.12
compound=O=C(Nc1nc2ccc(Cl)cc2s1)c1ccc(Br)s1 obs_value=0.924
compound=COc1ccccc1-c1cc(-c2ccccc2)nc(SCC(=O)c2cc3ccccc3oc2=O)c1C#N obs_value=0.966
compound=O=C(O)c1ccc(NCn2nnc3ccccc32)cc1 obs_value=1.03
compound=COc1ccc(Cl)cc1C(=O)Nc1ccc(NC(=O)c2ccccc2)cc1 obs_value=0.949
compound="CC1=C(C)CC2C(=O)N(c3ccccc3C)C(=O)C2C1 (stereo not drawn)" obs_value=1.06
compound=CC(=O)c1ccc(NC(=O)CSc2ccc(-c3ccc4c(c3)OCO4)nn2)cc1 obs_value=0.981

----------
- Test system: RAW-Dual (murine macrophage reporter line)
- test.protocol: IRF reporter (Lucia luciferase) activity fold change vs agonist alone; higher = enhanced IRF activity
- recorded.conditions: modulator concentration 10 µM; agonist: 3'3'-cGAMP 10 ug/mL
Definition: the class of an entry is the range in one (below 0.8), two (0.8 to below 1), three (1 or more) that contains its IRF reporter.

molecule=COc1cccc(C=NNc2nnc(C)c(=O)[nH]2)c1OC answer_label=two
molecule=Brc1ccc(-c2cc(-c3ccccc3)nc(N3CCCCC3)n2)cc1 answer_label=two
molecule=COc1cc(C=NNC(=O)CSc2ccccn2)cc(Cl)c1O answer_label=three
molecule=COc1ccc(-c2[nH]c(-c3cccc(OC)c3)nc2SCC(=O)NC2CCCC2)cc1 answer_label=one
molecule=CN(C)C=C1C(=O)N(c2nc3ccccc3s2)N=C1CSc1ccc(Cl)cc1 answer_label=two
molecule=CCN(CC)CCNC(=O)c1c(C)[nH]c(/C=C2\C(=O)Nc3ccc(F)cc32)c1C.O=C(O)C[C@H](O)C(=O)O answer_label=one
molecule="COc1ccc(S(=O)(=O)N2CCC(c3ccccc3)S(=O)(=O)CC2)cc1Cl (stereo unspecified)" answer_label=one
molecule=CC(Nc1ccc(N)cc1)=C1C(=O)c2ccccc2C1=O answer_label=two
molecule="O=C(CC1Sc2ccccc2NC1=O)Nc1ccccc1 (stereo unspecified)" answer_label=one
molecule=CC(C)Cn1cc(Cl)c(=O)n(CC(C)C)c1=O answer_label=three
molecule=COc1ccc(C2=CC(=Cc3cccc(OC)c3OC)C(=O)O2)c(OC)c1 answer_label=three
molecule="Nc1ncn(C2O[C@H](CO)[C@@H](O)[C@H]2O)c(=O)n1 (stereo partly specified) [Prestw-866]" answer_label=one
molecule=Cc1ccc(OCCSc2nc3ccccc3c(=O)[nH]2)cc1C answer_label=two
molecule="Cc1cn([C@H]2C=C[C@@H](CO)O2)c(=O)[nH]c1=O [Prestw-1279]" answer_label=two

----------
Listed here: items and their measured viability score.
- System: RAW-Dual (murine macrophage reporter line)
- test.protocol: viability score (confluency relative to resting cells, overnight) (fraction); higher = more viable, active = viable (0.7 or more)
- recorded.conditions: modulator concentration 10 µM
parameter: viability score

compound="C=Cc1c(C)c2cc3nc(cc4[nH]c(cc5nc(cc1[nH]2)C(C)=C5CCC(=O)O)c(CCC(=O)OC)c4C)[C@@]1(C)C3=CC=C(C(=O)OC)C1C(=O)OC (stereo partly specified) [Prestw-1105]" parameter="viability score" obs_value=0.669
compound=O=C(NN=Cc1ccc([N+](=O)[O-])s1)c1ccc(Br)cc1 parameter="viability score" obs_value=0.996
compound=Cc1ccc(-n2c(C)cc(C=NNC(=O)CN3CCOCC3)c2C)c(C)c1 parameter="viability score" obs_value=1
compound=O=C(Cn1cc(S(=O)(=O)c2ccc(F)cc2)c2ccccc21)N1CCCCCC1 parameter="viability score" obs_value=0.972
compound=CCOC(=O)Cc1nnnn1C parameter="viability score" obs_value=1
compound="CCOC(=O)C1C(=O)NC(SCC(N)=O)=C(C#N)C1c1ccccc1OCC (stereo unspecified)" parameter="viability score" obs_value=1
compound=COc1ccc(CCNc2cc(C)nc3cc(-c4ccc(OC)c(OC)c4)nn23)cc1OC parameter="viability score" obs_value=1
compound="CCn1nc(C)c(S(=O)(=O)N2CC3CC2CS3)c1C (stereo unspecified)" parameter="viability score" obs_value=0.988
compound=COc1ccccc1C(=O)Nc1ccc(Nc2ccc(-n3cccn3)nn2)cc1 parameter="viability score" obs_value=0.721
compound=NC(=O)NO parameter="viability score" obs_value=1
compound=Cc1c(Cl)cccc1Nc1ccccc1C(=O)O parameter="viability score" obs_value=1
compound="C=C1C(=O)OC2C1CCC(C)=CCCC1(C)OC21 (stereo unspecified)" parameter="viability score" obs_value=0.253
compound=O=C(Nc1cccnc1)c1ccc(OC2CCOCC2)nc1 parameter="viability score" obs_value=0.99
compound=COc1ccc(Cn2c(SC)nc3c(c2=O)C2(CCCCC2)Cc2ccccc2-3)cc1 parameter="viability score" obs_value=0.989
compound="O=C(C=Cc1ccccc1)NC(NC(=S)Nc1cccc(O)c1)C(Cl)(Cl)Cl (stereo unspecified)" parameter="viability score" obs_value=1.03
compound=CCCc1cc(=O)oc2cc(OCC(=O)OC)c(Cl)cc12 parameter="viability score" obs_value=0.998

----------
- Tested on: RAW-Dual (murine macrophage reporter line)
- test.protocol: IRF reporter (Lucia luciferase) activity fold change vs agonist alone; higher = enhanced IRF activity
- recorded.conditions: modulator concentration 10 µM; agonist: MPLA […]
parameter: IRF reporter

compound=Fc1ccc(Nc2nc(NN=Cc3ccc(Cl)cc3)nc(N3CCCCC3)n2)cc1 obs_value=1.24
compound=N#C[C@@H]1CCCN1C(=O)CNC12CC3CC(CC(O)(C3)C1)C2 obs_value=1.11
compound=O=C(C(c1ccccc1)c1ccccc1)N1CCC(n2nccn2)CC1 obs_value=1.16
compound=O=S(=O)(C=Cc1ccccc1)NCc1ccccc1 obs_value=1.61
compound=CC12CC3CC(C)(C1)CC(CNC(=O)c1ccc([N+](=O)[O-])cc1)(C3)C2 obs_value=1.48
compound=C#CCN(C)Cc1ccccc1.Cl obs_value=0.833
compound=CN(C)CCC=C1c2ccccc2COc2ccccc21.Cl obs_value=1.17
compound=CC(C)N1CCN(c2ccc(OC[C@H]3CO[C@](Cn4cncn4)(c4ccc(Cl)cc4Cl)O3)cc2)CC1 obs_value=1.02
compound=C=C(Br)Cn1c(COc2ccccc2)nc2ccccc21 obs_value=1.19
compound="COc1cccc(N2C(=O)CN(Cc3ccccc3)C3CS(=O)(=O)CC32)c1 (stereo not given)" obs_value=0.216
compound="CCC(Oc1ccccc1)C(=O)Nc1cc([N+](=O)[O-])ccc1C (stereo not given)" obs_value=0.973
compound=N#CC1=C(NC(=S)NC(=O)c2ccccc2)c2ccccc2CC12CCCCC2 obs_value=1.73
compound="O=C(NCCC(CCO)c1ccccc1)c1cccc(Cl)c1 (stereo not given)" obs_value=0.984
compound=O=C(NCCc1cn2ccccc2n1)c1ccccc1Br obs_value=1.24
compound=COc1ccc(CNC(=O)NCC#CCOc2cccc(C(F)(F)F)c2)cc1OC obs_value=1.13
compound=O=C1NC(=O)[C@@H](c2cn3c4c(cccc24)CCC3)[C@@H]1c1c[nH]c2ccccc12 obs_value=0.948
compound=CS(=O)(=O)N1CCN(Cc2cc3nc(-c4cccc5[nH]ncc45)nc(N4CCOCC4)c3s2)CC1 obs_value=1.33
compound=CCOc1ccccc1OCCCCOc1cccc(C)c1C obs_value=1.1
compound=O=C(NCCSC1CCOCC1)c1ccc(Cl)s1 obs_value=1.13
compound="CCC(C)(C)C(=O)OC1CC(C)C=C2C=CC(C)C(CCC3CC(O)CC(=O)O3)C21 (stereo not given)" obs_value=0.524

----------
IRF reporter overview
- Test system: RAW-Dual (murine macrophage reporter line)
- test.protocol: IRF reporter (Lucia luciferase) activity fold change vs agonist alone; higher = enhanced IRF activity
- recorded.conditions: modulator concentration 10 µM; agonist: MPLA […]
parameter: IRF reporter

structure_notation=CC(C)(C)NCC(=O)Nc1ccc(S(N)(=O)=O)cc1 parameter="IRF reporter" obs_value=1.7
structure_notation=Cc1ccc(Nc2nccc(N(C)c3ccc4c(C)n(C)nc4c3)n2)cc1S(N)(=O)=O parameter="IRF reporter" obs_value=1.18
structure_notation=Cc1cc2c(cc1S(N)(=O)=O)S(=O)(=O)CCC2 parameter="IRF reporter" obs_value=0.891
structure_notation=CCN(CC)CCOC(=O)c1ccc(N)cc1Cl.Cl parameter="IRF reporter" obs_value=0.897
structure_notation=O=c1[nH]c2ccccc2n1CCN1CCN(c2cccc(C(F)(F)F)c2)CC1 parameter="IRF reporter" obs_value=1.51
structure_notation=O=C(NN=Cc1ccc(O)c(O)c1)c1cc2ccccc2cc1O parameter="IRF reporter" obs_value=0.794
structure_notation=CC(=NN1CCN(Cc2cccc3ccccc23)CC1)c1ccc(Cl)cc1 parameter="IRF reporter" obs_value=0.992
